subject_of_test: SMARCA2 (Homo sapiens)
Construct: endogenous in cells
Sequence (P51531 whole entry, species assumed): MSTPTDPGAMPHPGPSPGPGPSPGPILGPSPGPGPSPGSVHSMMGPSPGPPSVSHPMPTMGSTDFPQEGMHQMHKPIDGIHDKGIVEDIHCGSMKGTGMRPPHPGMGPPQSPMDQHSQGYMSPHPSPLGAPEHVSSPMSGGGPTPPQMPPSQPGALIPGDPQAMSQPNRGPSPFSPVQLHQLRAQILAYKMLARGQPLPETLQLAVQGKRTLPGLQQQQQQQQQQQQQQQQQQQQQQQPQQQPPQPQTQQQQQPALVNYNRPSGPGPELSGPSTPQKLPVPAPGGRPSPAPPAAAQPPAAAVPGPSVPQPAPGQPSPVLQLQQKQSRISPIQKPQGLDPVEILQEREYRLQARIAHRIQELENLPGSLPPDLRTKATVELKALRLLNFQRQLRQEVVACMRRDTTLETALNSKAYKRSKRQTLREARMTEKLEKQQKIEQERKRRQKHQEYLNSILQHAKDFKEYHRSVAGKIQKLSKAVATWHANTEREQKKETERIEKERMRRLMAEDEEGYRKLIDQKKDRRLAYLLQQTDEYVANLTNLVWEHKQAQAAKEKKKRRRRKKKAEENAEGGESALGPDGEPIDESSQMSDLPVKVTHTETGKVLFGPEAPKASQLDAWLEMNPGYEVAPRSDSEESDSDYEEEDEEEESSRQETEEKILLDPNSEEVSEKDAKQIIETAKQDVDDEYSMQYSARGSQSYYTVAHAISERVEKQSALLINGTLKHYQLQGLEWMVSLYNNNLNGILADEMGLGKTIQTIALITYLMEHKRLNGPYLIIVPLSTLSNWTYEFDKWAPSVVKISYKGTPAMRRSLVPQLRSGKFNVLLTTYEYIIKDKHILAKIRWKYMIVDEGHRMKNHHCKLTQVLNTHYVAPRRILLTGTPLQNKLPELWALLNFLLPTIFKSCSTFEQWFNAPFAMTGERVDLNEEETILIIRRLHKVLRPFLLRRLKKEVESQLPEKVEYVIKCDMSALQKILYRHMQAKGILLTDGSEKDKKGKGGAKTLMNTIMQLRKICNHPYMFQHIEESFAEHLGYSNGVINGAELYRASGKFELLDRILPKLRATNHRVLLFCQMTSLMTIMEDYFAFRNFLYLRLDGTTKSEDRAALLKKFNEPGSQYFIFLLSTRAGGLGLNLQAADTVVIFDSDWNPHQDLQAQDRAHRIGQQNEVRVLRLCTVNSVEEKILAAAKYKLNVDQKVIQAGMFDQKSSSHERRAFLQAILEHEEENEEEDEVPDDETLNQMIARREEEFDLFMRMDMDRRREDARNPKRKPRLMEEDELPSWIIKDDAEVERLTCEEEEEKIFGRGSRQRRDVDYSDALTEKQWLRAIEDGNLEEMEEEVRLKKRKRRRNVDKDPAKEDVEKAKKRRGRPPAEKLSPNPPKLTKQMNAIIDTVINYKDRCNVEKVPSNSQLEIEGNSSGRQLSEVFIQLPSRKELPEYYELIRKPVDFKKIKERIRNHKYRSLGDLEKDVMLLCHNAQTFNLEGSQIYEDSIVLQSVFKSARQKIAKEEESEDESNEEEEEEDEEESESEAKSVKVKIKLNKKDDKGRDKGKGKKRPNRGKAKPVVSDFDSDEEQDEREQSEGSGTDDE
assay_procedure: SMARCA2 Cellular Degradation Assay (Western blot analysis on Jess platform)
Assay type: cell-based
condition_info: ratio DC50 SMARCA4 / DC50 SMARCA2
test_readout: Fold Selectivity SMARCA4/2

Some compounds with recorded Fold Selectivity SMARCA4/2:
compound	Fold Selectivity SMARCA4/2
CC(C)c1cc(C2(C(=O)N3CC4(CN(CC5CCN(c6ccc(C7CCC(=O)NC7=O)cc6)CC5)C4)C3)CCN(c3cnnc(-c4ccccc4O)c3)CC2)no1 (racemic)	19
O=C1CCC(c2ccc(N3CCC(CN4CCN(C(=O)C5(c6ccccc6)CCN(c6cnnc(-c7ccccc7O)c6)CC5)CC4)CC3)cc2)C(=O)N1 (racemic)	82.86

I. CC(C)c1cc(C2(C(=O)N3CC4(CN(CCC5CCN(c6ccc(C7CCC(=O)NC7=O)cc6)CC5)C4)C3)CCN(c3cnnc(-c4ccccc4O)c3)CC2)no1 (racemic)
II. O=C1CCC(c2ccc(N3CC[C@H](CCN4CC5(C4)CN(C(=O)C4(c6ccccc6)CCN(c6cnnc(-c7ccccc7O)c6)CC4)C5)C3)nc2)C(=O)N1 (mixture of isomers)
III. Cc1ccnn1C1(C(=O)N(C)C2CCN(CC3CCN(c4ccc(C5CCC(=O)NC5=O)cc4)CC3)CC2)CCN(c2cnnc(-c3ccccc3O)c2)CC1 (racemic)
Input: Please produce an ascending ranking of these compounds based on Fold Selectivity SMARCA4/2. List the labels according to the requested ordering.
Output: III, II, I
(III: 9, II: 16, I: 806)
